Cited source for all entries: ChEMBL document CHEMBL4270662

molecular target: SWI/SNF-related matrix-associated actin-dependent regulator of chromatin subfamily A member 4 (Homo sapiens); test: Inhibition of recombinant His6-tagged BRG1 ATPase-SnAC (658 to 1361 residues) (unknown origin) expressed in insect sf9 cells preincubated for 5 mins followed by pCMV-dR8.91 plasmid and ATP addition measured after 60 mins by ADP-Glo assay
Sequence (P51532 whole entry, the tested form may be a part): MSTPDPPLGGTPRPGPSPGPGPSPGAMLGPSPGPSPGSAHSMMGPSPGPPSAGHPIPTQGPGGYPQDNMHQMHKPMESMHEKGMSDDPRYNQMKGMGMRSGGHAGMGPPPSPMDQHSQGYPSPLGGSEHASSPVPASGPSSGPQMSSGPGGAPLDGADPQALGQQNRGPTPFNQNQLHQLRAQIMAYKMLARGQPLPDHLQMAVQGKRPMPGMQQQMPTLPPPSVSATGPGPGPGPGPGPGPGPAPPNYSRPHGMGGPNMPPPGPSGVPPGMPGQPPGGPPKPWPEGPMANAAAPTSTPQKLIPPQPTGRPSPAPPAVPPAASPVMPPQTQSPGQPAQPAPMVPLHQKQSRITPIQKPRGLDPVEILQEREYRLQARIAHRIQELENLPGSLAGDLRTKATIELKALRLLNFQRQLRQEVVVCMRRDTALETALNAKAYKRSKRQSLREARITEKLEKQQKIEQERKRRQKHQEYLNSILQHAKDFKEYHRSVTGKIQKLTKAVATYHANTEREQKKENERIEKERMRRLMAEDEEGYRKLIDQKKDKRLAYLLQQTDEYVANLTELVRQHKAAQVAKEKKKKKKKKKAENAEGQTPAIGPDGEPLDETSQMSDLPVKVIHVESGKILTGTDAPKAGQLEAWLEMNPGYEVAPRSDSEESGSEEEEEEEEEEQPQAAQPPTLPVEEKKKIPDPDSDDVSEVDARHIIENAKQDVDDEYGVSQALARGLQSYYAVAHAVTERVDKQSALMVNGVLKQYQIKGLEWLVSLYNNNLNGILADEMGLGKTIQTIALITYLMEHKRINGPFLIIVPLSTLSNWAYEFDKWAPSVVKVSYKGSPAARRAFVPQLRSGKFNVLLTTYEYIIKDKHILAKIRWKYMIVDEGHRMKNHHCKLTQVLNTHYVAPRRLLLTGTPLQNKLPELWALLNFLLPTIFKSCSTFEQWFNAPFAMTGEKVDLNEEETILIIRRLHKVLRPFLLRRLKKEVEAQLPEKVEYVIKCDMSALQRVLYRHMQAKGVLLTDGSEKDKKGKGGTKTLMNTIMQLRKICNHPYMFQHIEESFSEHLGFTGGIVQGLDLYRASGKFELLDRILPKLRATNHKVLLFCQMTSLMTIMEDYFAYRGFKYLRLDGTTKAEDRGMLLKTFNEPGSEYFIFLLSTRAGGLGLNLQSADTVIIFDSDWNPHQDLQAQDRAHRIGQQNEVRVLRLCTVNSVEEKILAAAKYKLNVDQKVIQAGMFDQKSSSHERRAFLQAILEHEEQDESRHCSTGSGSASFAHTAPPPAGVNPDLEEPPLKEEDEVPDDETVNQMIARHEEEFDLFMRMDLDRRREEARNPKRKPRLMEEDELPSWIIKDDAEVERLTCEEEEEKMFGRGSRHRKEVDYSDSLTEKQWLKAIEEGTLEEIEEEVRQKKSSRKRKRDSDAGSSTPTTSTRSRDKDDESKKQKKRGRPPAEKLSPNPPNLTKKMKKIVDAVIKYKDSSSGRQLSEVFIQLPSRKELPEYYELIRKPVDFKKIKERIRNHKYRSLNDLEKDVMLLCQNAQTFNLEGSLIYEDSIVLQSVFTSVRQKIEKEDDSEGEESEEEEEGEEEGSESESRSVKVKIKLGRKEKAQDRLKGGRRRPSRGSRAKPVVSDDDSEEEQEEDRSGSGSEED
Kindly supply the reported pIC50 values for the records listed here.
Entry type: numeric. Quantity: pIC50, the -log10 of concentration in molar units.

Indicate its recorded pIC50; the compound in question is `O=C(Nc1ccnc(Cl)c1)Nc1ccccn1`
5.77

Give a short answer stating reported pIC50 for `Cc1csc(NC(=O)Nc2ccnc(Cl)c2)n1` .
6.24

Indicate the recorded pIC50 value for this compound: `Cc1cc(NC(=O)Nc2ccnc(Cl)c2)ccn1`
6.82

Please look at this compound and report its pIC50: `O=C(Nc1ccncc1)Nc1ccnc(Cl)c1`
6.11

Return pIC50 (reported value) for this compound: `O=C(Nc1ccnc(Cl)c1)Nc1ccnc(C(F)(F)F)c1`
7.52

###

For each of the molecules below, state its solubility thermodynamic.
assay: Thermodynamic solubility of the compound at 1 mg/ml pH 6.8 after 16 to 24 hrs by shake-flask method; type: physicochemical; conditions: buffer, read-out: Therm_solubility
Note: state the figure and append the unit.

Let me know recorded solubility thermodynamic for `O=C(Nc1cc(C(F)F)ns1)Nc1cc(F)ncc1CO` , thanks.
34 µM

Complete the entry with solubility thermodynamic for `Nc1cnc(F)cc1NC(=O)Nc1cc(C(F)F)ns1`
92 µM

Provide measured solubility thermodynamic value, entry: `Nc1cnc(Cl)cc1NC(=O)Nc1cc(C(F)F)ns1`
40 µM

Complete the entry with solubility thermodynamic for `O=C(Nc1ccncc1)Nc1ccnc(Cl)c1`
330 µM

###

assay: Inhibition of BRM/BRG1 mutant in human NCI-H1299 cells assessed as reduction in KRT80 gene expression after 24 hrs by luciferase reporter gene assay; assay type: cell-based; conditions: NCI-H1299, 24 h
Reported Property: pEC50
Lab note: report pEC50 as minus log10 of the concentration in molar units, number only.

Identify pEC50 associated with the molecule `O=C(Nc1cc(C(F)F)ns1)Nc1cc(Cl)ncc1CO`
7.38

Note pEC50 for the molecule shown: `O=C(Nc1ccnc(Cl)c1)Nc1cc(C(F)(F)F)ns1`
6.03

Please give measured pEC50 of the following entry: `O=C(Nc1cc(C(F)F)ns1)Nc1cc(F)ncc1CO`
8.00

Give pEC50 for `O=C(Nc1ccnc(Cl)c1)Nc1cc(C(F)F)ns1`
6.44

Fill in pEC50 for record `Nc1cnc(Cl)cc1NC(=O)Nc1cc(C(F)F)ns1`
7.59

Provide only the value of recorded pEC50 for `Nc1cnc(F)cc1NC(=O)Nc1cc(C(F)F)ns1`
8.00

###

target: SWI/SNF-related matrix-associated actin-dependent regulator of chromatin subfamily A member 2 (Homo sapiens, UniProt P51531); assay: Binding affinity to N-terminal avi-tagged BRM ATPase-SnAC domain (unknown origin) in presence of ADP by SPR assay
Sequence (P51531 whole entry, the tested form may be a part): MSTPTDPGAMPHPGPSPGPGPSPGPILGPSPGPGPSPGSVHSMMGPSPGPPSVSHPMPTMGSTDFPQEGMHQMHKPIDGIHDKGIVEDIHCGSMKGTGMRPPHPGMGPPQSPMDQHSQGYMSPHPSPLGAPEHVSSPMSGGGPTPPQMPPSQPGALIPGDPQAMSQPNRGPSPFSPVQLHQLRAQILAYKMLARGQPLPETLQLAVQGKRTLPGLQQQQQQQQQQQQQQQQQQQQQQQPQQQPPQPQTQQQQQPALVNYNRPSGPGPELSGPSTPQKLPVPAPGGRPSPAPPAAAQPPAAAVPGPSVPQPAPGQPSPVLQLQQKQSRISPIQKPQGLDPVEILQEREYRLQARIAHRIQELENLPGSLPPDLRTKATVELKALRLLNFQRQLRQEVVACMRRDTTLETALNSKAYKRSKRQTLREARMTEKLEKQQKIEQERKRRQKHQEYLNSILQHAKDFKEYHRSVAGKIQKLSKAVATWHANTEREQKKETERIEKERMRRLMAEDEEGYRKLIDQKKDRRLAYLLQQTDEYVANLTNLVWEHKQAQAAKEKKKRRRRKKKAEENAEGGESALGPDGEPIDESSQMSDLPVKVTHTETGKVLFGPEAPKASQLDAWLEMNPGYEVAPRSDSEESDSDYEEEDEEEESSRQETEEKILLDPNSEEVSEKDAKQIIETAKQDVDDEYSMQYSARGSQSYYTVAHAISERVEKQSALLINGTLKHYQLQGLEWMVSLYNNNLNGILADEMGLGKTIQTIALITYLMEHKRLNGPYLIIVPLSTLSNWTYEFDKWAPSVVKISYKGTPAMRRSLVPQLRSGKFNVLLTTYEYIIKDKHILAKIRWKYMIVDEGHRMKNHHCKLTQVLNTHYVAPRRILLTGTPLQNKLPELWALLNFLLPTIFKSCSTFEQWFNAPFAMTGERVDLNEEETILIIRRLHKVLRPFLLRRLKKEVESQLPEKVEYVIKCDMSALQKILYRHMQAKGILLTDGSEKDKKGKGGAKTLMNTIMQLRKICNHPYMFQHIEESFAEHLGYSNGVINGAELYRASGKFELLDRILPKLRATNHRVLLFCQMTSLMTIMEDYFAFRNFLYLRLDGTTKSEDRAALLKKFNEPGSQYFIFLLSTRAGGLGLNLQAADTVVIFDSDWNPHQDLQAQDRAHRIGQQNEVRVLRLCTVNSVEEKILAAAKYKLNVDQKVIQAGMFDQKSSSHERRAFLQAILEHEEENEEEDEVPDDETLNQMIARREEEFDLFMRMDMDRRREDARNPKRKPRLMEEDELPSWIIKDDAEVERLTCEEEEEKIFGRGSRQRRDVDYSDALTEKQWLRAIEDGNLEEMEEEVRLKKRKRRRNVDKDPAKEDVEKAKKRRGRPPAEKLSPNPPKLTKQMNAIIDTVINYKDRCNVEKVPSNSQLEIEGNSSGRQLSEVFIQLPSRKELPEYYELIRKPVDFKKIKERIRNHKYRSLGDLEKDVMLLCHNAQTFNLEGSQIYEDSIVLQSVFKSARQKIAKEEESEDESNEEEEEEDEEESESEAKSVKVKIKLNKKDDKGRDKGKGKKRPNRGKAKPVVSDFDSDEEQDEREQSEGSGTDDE
Reported Property: Kd (nM)
All answers are understood in nM, so give the number only.

Quick one: give measured Kd for `O=C(Nc1ccncc1)Nc1ccnc(Cl)c1`
450

###

assay: Thermodynamic solubility of the compound at 1 mg/ml pH 1 after 16 to 24 hrs by shake-flask method; type: physicochemical; settings: buffer, read-out: Therm_solubility
Reported Property: solubility thermodynamic (mM)
API: value field is a number in mM; no unit string.

Supply measured solubility thermodynamic of `O=C(Nc1ccncc1)Nc1ccnc(Cl)c1` in your reply.
3.1
